experiment: nonspecific effects on YFP-HEK293 ionomycin response – cell-based, parental YFP-HEK293, YFP quench, counter-screen for TMEM16A inhibitor project (AID 652233); settings: parental YFP-HEK293, iodide YFP quench, at 10 µM;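 also: ratio is mean of duplicate wells from kinetic YFP trace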
The campaign covered roughly 2,300 compounds. Fewer than 10 were called active. A selection follows.
# Lookup of reported YFP ratio F(max-min)/F0 keyed by entry
readout-kind: YFP ratio F(max-min)/F0

>>> assay_value("O=C(COC(=O)CCc1c[nH]c(=O)[nH]1)Nc1ccccc1Cl")
-0.772
>>> assay_value("Cc1ccc(F)cc1NC(=O)Cc1nn(C)c(=O)c2ccccc12")
-1.06
>>> assay_value("Cc1cccc(-n2c(SCC(N)=O)nc3c(c2=O)C2(CCCCC2)Cc2ccccc2-3)c1")
-0.969
>>> assay_value("CN(Cc1cccnc1)C(=O)c1cc(COc2ccc3ncccc3c2)on1")
-0.909
>>> assay_value("COc1ccc(-c2nc(CCNC(=O)c3ccc(Br)o3)cs2)cc1")
-1.06
>>> assay_value("Cc1nc(SCC(=O)N2CCc3ccccc3C2)c2c(C)c(C)sc2n1")
-1.07
>>> assay_value("N#CC1=C(SCc2ccccc2)NC(=O)C(C#N)C12CCCC2 (stereo unspecified)")
-0.894
>>> assay_value("COc1ccc(S(=O)(=O)NCCCCOc2ccc(Cl)cc2)cc1")
-1.14
>>> assay_value("Cc1ccc(C)c(N2CCN(S(=O)(=O)c3ccc4c(c3)oc(=O)n4C)CC2)c1")
-1.24
>>> assay_value("C=CCn1c(SCC(=O)Nc2nc3ccccc3s2)nnc1-c1ccccc1O")
-1.05
>>> assay_value("CCN(CC)S(=O)(=O)c1ccc(N(C)Cc2ccc(C(F)(F)F)cc2)nc1")
-1.04
>>> assay_value("Cc1ccc(-n2ncc3c(N4CCN(c5ccc(F)cc5)CC4)ncnc32)c(C)c1")
-0.733
>>> assay_value("O=C(CSCc1ccc(Cl)cc1)N1CCN(Cc2ccc3c(c2)OCO3)CC1")
-1.19
>>> assay_value("O=C1c2ccccc2C(Nc2ccc3c(c2)OCCO3)N1Cc1ccco1 (stereo unspecified)")
-0.965
>>> assay_value("O=C(CN1CCN(C(=S)NC2CCCC2)CC1)Nc1ccc(Oc2ccccc2)cc1")
-1.09
>>> assay_value("O=C(Nc1ccccc1)c1ccccc1NC(=O)C(F)(F)F")
-0.833
